# credit: ChEMBL document CHEMBL4689842

- System: HEK-293T
- method summary: Multiplex assay against HEK293T
- Assay type: toxicity, cell-based
- details: human, 48 h, 10 µM, compound concentration 10 uM, replicate 1
// NB: equality with 2% counts as Condition not met; only Population Membrane Permeable-Phenotype (%) strictly below is Condition met

Past entries and their recorded results:
>  <molecule>
Cc1cc(C)c(S(=O)(=O)N(Cc2ccc(-c3cccc(S(C)(=O)=O)c3)cc2)Cc2ccc(C(F)(F)F)o2)c(C)c1

>  <group label>
Condition not met

$$$$
>  <molecule>
CCOc1cc2ncc(C#N)c(Nc3ccc(OCc4ccccn4)c(Cl)c3)c2cc1NC(=O)/C=C/CN(C)C

>  <group label>
Condition met

$$$$
>  <molecule>
CCOc1cc(C(=O)N2CCC(N3CCN(C)CC3)CC2)ccc1Nc1ncc2c(n1)N(C1CCCC1)c1ccccc1C(=O)N2C

>  <group label>
Condition met

$$$$

Quick check: does CCOC(=O)c1c(C)[nH]c2ccc3c(c12)CN1CCc2cc(OC)ccc2C1O3 (stereo not drawn) have Population Membrane Permeable-Phenotype (%) under 2%?
Condition met

Quick check: does "O=C(Nc1ccc(Cl)cc1)Nc1cccc(-c2cccc(N3CCCC3)n2)c1" have Population Membrane Permeable-Phenotype (%) under 2%?
Condition not met

Quick check: does "O=C(Cc1ccc(-c2ccc(OCCN3CCOCC3)cc2)cn1)NCc1ccccc1" have Population Membrane Permeable-Phenotype (%) under 2%?
Condition met

Quick check: does "Cl.O=C(c1ccc(Nc2nccc(-c3cc4ccccc4s3)n2)cc1)N1CCC(N2CCCC2)CC1" have Population Membrane Permeable-Phenotype (%) under 2%?
Condition met

Quick check: does "CCN1CCN(Cc2ccc(Nc3ncc(F)c(-c4cc(F)c5nc(C)n(C(C)C)c5c4)n3)nc2)CC1.CS(=O)(=O)O" have Population Membrane Permeable-Phenotype (%) under 2%?
Condition not met

Quick check: does "CCCn1c(=O)c2[nH]c(-c3cnn(Cc4cccc(C(F)(F)F)c4)c3)nc2n(CC)c1=O" have Population Membrane Permeable-Phenotype (%) under 2%?
Condition met

Quick check: does "O=C1NC(=O)C(c2cnc3ccccn23)=C1c1cn2c3c(cc(F)cc13)CN(C(=O)N1CCCCC1)CC2" have Population Membrane Permeable-Phenotype (%) under 2%?
Condition met

Quick check: does "CCc1cccc(CC)c1NC(=O)c1nn(C)c2c1CCc1cnc(Nc3ccc(C(=O)NC4CCN(C)CC4)cc3OC(F)(F)F)nc1-2" have Population Membrane Permeable-Phenotype (%) under 2%?
Condition not met

---

- Test system: U2OS
- method summary: Multiplex assay against U2OS
- Assay type: toxicity, cell-based
- details: human, 12 h, 10 µM, compound concentration 10 uM, replicate 2
Entries and their measured Population Fragmented Nuclei (%) follow.
Quick reminder: number only, in %, skip the unit.

Completed entries (count: 2):
>  <compound>
CNc1cc(Oc2cc(C(=O)Nc3cc(N4CCN(C)CC4)cc(C(F)(F)F)c3)ccc2C)ncn1

>  <reported result>
24

$$$$
>  <compound>
COc1ccc(S(=O)(=O)N(CCO)c2ccccc2CN(C)C/C=C/c2ccc(Cl)cc2)cc1.O=P(O)(O)O

>  <reported result>
10

$$$$

# Population Fragmented Nuclei (%) lookup, item CN1C2CCC1CC(OC(c1ccc(F)cc1)c1ccc(F)cc1)C2.Cl (centres undefined)
8

# Population Fragmented Nuclei (%) lookup, item "CCN1CCN(c2ccc(Nc3cc(N(C)C(=O)Nc4c(Cl)c(OC)cc(OC)c4Cl)ncn3)cc2)CC1"
7

---

- Tested on: Fibroblast
- method summary: Multiplex assay against human fibroblast
- Type: toxicity, cell-based
- details: 24 h, 1 µM, compound concentration 1 uM, replicate 2
Entries and their measured Population Mitochondria Different-Phenotype (%) follow.
Quick reminder: number only, in %, skip the unit.

Completed entries (count: 2):
>  <molecule>
O=C(Cc1ccc(-c2ccc(OCCN3CCOCC3)cc2)cn1)NCc1ccccc1 [TIRBANIBULIN]

>  <tested target>
Fibroblast

>  <reported result>
44

$$$$
>  <molecule>
O=C1NC(=O)C(c2cnc3ccccn23)=C1c1cn2c3c(cc(F)cc13)CN(C(=O)N1CCCCC1)CC2 [LY-2090314]

>  <tested target>
Fibroblast

>  <reported result>
22

$$$$

What measured Population Mitochondria Different-Phenotype (%) is associated with "CCCS(=O)(=O)c1nc(NC2CC2)cc(-c2ccc3c(ccn3C3CC(C)(C)NC(C)(C)C3)c2)n1" on Fibroblast?
21

What measured Population Mitochondria Different-Phenotype (%) is associated with "Cl.O=c1c2cccn2c2ccccc2n1CCCN1CCC(c2ccc(Cl)cc2)CC1" on Fibroblast?
38

What measured Population Mitochondria Different-Phenotype (%) is associated with CCCS(=O)(=O)Nc1ccc(F)c(C(=O)c2c[nH]c3ncc(Cl)cc23)c1F [PLX-4720] on Fibroblast?
6

What measured Population Mitochondria Different-Phenotype (%) is associated with "CCn1c(=O)c(-c2ccc(-c3cncs3)cc2Cl)cc2cnc(Nc3ccc(N4CCN(C)CC4)cc3)nc21" on Fibroblast?
5

What measured Population Mitochondria Different-Phenotype (%) is associated with CN[C@@H]1C[C@H]2O[C@@](C)([C@@H]1OC)n1c3ccccc3c3c4c(c5c6ccccc6n2c5c31)C(=O)NC4 [STAUROSPORINE] on Fibroblast?
10

What measured Population Mitochondria Different-Phenotype (%) is associated with "Cc1cc(C)c(S(=O)(=O)N(Cc2ccc(-c3cccc(S(C)(=O)=O)c3)cc2)Cc2ccc(C(F)(F)F)o2)c(C)c1" on Fibroblast?
18

What measured Population Mitochondria Different-Phenotype (%) is associated with CCOC(=O)c1c(C)[nH]c2ccc3c(c12)CN1CCc2cc(OC)ccc2C1O3 (centres undefined) on Fibroblast?
58

---

- Test system: U2OS
- method summary: Multiplex assay against U2OS
- Assay type: toxicity, cell-based
- details: human, 48 h, 1 µM, compound concentration 1 uM, replicate 1
Entries and their measured Population Membrane Permeable-Phenotype (%) follow.
Quick reminder: number only, in %, skip the unit.

Completed entries (count: 5):
>  <query smiles>
CCCn1c(=O)c2[nH]c(-c3cnn(Cc4cccc(C(F)(F)F)c4)c3)nc2n(CC)c1=O

>  <tested target>
U2OS

>  <reported result>
3

$$$$
>  <query smiles>
CCCS(=O)(=O)c1nc(NC2CC2)cc(-c2ccc3c(ccn3C3CC(C)(C)NC(C)(C)C3)c2)n1

>  <tested target>
U2OS

>  <reported result>
5

$$$$
>  <query smiles>
C=C1/C(=C\C=C2/CCC[C@]3(C)[C@@H]([C@H](C)/C=C/[C@H](C)C(C)C)CC[C@@H]23)C[C@@H](O)C[C@@H]1O

>  <tested target>
U2OS

>  <reported result>
2

$$$$
>  <query smiles>
O=C(Cc1ccc(-c2ccc(OCCN3CCOCC3)cc2)cn1)NCc1ccccc1

>  <tested target>
U2OS

>  <reported result>
7

$$$$
>  <query smiles>
CCc1cccc(CC)c1NC(=O)c1nn(C)c2c1CCc1cnc(Nc3ccc(C(=O)NC4CCN(C)CC4)cc3OC(F)(F)F)nc1-2

>  <tested target>
U2OS

>  <reported result>
5

$$$$

Now consider the entry below.
# Population Membrane Permeable-Phenotype (%) lookup, item "CCn1c(=O)c(-c2ccc(-c3cncs3)cc2Cl)cc2cnc(Nc3ccc(N4CCN(C)CC4)cc3)nc21"
3

---

- System: HEK-293T
- method summary: Multiplex assay against HEK293T
- Type: toxicity, cell-based
- details: human, 24 h, 1 µM, compound concentration 1 uM, replicate 1
Please mark TRUE if the recorded Population Apoptotic (%) is equal to or greater than 40%, and FALSE if it falls below.

Past entries and their recorded results:
>  <molecule>
CCN1CCN(Cc2ccc(Nc3ncc(F)c(-c4cc(F)c5nc(C)n(C(C)C)c5c4)n3)nc2)CC1.CS(=O)(=O)O

>  <group label>
TRUE

$$$$
>  <molecule>
CCN1CCN(c2ccc(Nc3cc(N(C)C(=O)Nc4c(Cl)c(OC)cc(OC)c4Cl)ncn3)cc2)CC1

>  <group label>
FALSE

$$$$
>  <molecule>
CNC(=O)c1ccc(Nc2nc(OC3CCCC3)c3c(-c4ccc5nc(C)oc5c4)c[nH]c3n2)c(OC)c1

>  <group label>
TRUE

$$$$
>  <molecule>
CCCS(=O)(=O)c1nc(NC2CC2)cc(-c2ccc3c(ccn3C3CC(C)(C)NC(C)(C)C3)c2)n1

>  <group label>
TRUE

$$$$
>  <molecule>
CN1CCC(=C2c3ccccc3CC(=O)c3sccc32)CC1.O=C(O)/C=C/C(=O)O [KETOTIFEN FUMARATE]

>  <group label>
TRUE

$$$$
>  <molecule>
Cl.O=C(c1ccc(Nc2nccc(-c3cc4ccccc4s3)n2)cc1)N1CCC(N2CCCC2)CC1

>  <group label>
FALSE

$$$$
>  <molecule>
CN(C)C(=O)C(CCN1CCC(O)(c2ccc(Cl)cc2)CC1)(c1ccccc1)c1ccccc1.Cl [LOPERAMIDE HYDROCHLORIDE]

>  <group label>
TRUE

$$$$
>  <molecule>
COc1ccc(S(=O)(=O)N(CCO)c2ccccc2CN(C)C/C=C/c2ccc(Cl)cc2)cc1.O=P(O)(O)O

>  <group label>
TRUE

$$$$

Here's the next entry for you.
Is the recorded value of Population Apoptotic (%) equal to or greater than 40% for this molecule? "O=C(Nc1ccc(-n2nc(-c3cccnc3)cc2C(F)(F)F)cn1)c1ccc(-c2ccccc2)c(F)c1"
TRUE
